molecular target: Cholinesterase (Equus caballus) (UniProt P81908); settings: at 2 mg/mL
Sequence (P81908 whole entry): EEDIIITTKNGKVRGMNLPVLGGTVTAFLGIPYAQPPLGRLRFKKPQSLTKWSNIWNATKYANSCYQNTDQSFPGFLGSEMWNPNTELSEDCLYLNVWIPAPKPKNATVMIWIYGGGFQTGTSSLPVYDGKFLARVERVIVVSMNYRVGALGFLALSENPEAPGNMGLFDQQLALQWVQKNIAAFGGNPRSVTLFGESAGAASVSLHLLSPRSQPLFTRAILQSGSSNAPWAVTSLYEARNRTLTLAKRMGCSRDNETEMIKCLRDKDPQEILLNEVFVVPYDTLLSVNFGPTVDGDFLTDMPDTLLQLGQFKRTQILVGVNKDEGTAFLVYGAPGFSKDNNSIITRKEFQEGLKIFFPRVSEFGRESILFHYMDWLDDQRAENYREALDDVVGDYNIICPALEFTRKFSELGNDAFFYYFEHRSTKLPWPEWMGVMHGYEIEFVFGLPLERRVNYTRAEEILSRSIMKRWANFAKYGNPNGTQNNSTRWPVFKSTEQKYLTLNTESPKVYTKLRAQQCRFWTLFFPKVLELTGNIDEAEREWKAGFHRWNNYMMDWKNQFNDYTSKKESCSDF
Description: Inhibition of horse BChE at 2 mg/ml by Ellman's method
Exercise: state measured inhibition for each of the molecules provided.
Record the result as number plus unit.

1. COc1c2ccoc2cc2oc(=O)ccc12 = 10.3%

Please go through the list and note inhibition for each molecule.
1. CC(C)[C@@]1(NC(=O)[C@@H]2C[C@@H]3c4cccc5[nH]cc(c45)C[C@H]3N(C)C2)O[C@@]2(O)[C@@H]3CCCN3C(=O)[C@H](Cc3ccccc3)N2C1=O
2. CN1[C@H]2C[C@H](OC(=O)[C@H](CO)c3ccccc3)C[C@@H]1[C@@H](O)C2

["0.35%", "8.08%"]

I would be grateful if you could provide inhibition for each of the following entries.
1. O=c1cc(-c2ccccc2)oc2cc(O)cc(O)c12
2. C[C@H]1CCCC(=O)CCC/C=C/c2cc(O)cc(O)c2C(=O)O1

1. 2.93%
2. -1.04%

Below are some molecules; for each one, tell me its inhibition.
1. O=c1cc(-c2ccc(O)cc2)oc2c([C@@H]3O[C@H](CO)[C@@H](O)[C@H](O)[C@H]3O)c(O)cc(O)c12
2. O=c1c(-c2ccc(O)cc2)coc2cc(O[C@@H]3O[C@H](CO)[C@@H](O)[C@H](O)[C@H]3O)cc(O)c12
3. CC(=O)O[C@@H]1CC[C@@]2(C)[C@H](C1)[C@H](OC(C)=O)C[C@@H]1[C@@H]2C[C@H]2[C@@H]3CN4C[C@H](C)CC[C@H]4[C@H](C)[C@H]3CC[C@@]12O
4. COc1c(O)cc(O)c2c(=O)cc(-c3ccccc3)oc12

2.26%
1.82%
4.14%
-5.86%

Below are some molecules; for each one, tell me its inhibition.
1. COc1ccc2c(c1OC)C(=O)OC2C1c2c(cc3c(c2OC)OCO3)CCN1C (racemic)
2. Cc1cccc2c3c(ccc12)C1=C(C(=O)C3=O)[C@@H](C)CO1
3. COc1ccc2cc1Oc1ccc(cc1)C[C@@H]1c3cc(c(OC)cc3CCN1C)Oc1c(OC)c(OC)cc3c1[C@H](C2)N(C)CC3
4. C[N+]1([O-])[C@@H]2C[C@H](OC(=O)[C@H](CO)c3ccccc3)C[C@@H]1[C@H]1O[C@H]12 (stereo partly drawn)
5. O=c1c(O)c(-c2ccccc2)oc2cc(O)cc(O)c12
6. COc1cc([C@@H]2c3cc4c(cc3[C@@H](O)[C@H]3COC(=O)[C@H]23)OCO4)cc(OC)c1O
7. CN1C(=O)CC[C@H]1c1cccnc1
8. O=C1Cc2c([nH]c3ccc(Br)cc23)-c2ccccc2N1

["3.34%", "-3.19%", "21.9%", "-1.85%", "2.59%", "-7.02%", "-0.23%", "-1%"]

Item C=C1C(=O)[C@]23[C@H](O)[C@H]1CC[C@H]2[C@@]12CO[C@]3(O)[C@@H](O)[C@@H]1C(C)(C)CC[C@@H]2O has what recorded inhibition?
0.03%
